Reported Anti-CD28 Fab signal in the presence of CD28 (phage binding ELISA) by item:
# system name: Anti-CD28 Fab (SEQ ID NOs: 696, 697)
# Sequence (VH, as listed by the source, chain 1 of 2): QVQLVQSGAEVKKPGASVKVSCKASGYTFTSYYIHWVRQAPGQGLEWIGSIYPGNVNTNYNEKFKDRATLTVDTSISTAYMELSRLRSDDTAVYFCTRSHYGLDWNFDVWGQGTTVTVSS
# Sequence (VL, as listed by the source, chain 2 of 2): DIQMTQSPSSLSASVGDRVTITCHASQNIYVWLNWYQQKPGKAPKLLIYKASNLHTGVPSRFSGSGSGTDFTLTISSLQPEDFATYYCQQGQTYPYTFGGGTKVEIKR
# assay explanation: phage binding ELISA on captured anti-CD28 Fab, wells pre-incubated with CD28 antigen as competitor

>>> df
                                     binder  reported_measurement
0  SCADGFNYVWPLCF (Tested as clonal phage supernatant) [Phage-1645 (peptide-92 library clone, SEQ ID NO: 1941)]                  0.08
1  LCEEFFHYSWPLCL (Tested as clonal phage supernatant) [Phage-1637 (peptide-92 library clone, SEQ ID NO: 1933)]                  0.06
2  TCSAGATYSWPSCF (Tested as clonal phage supernatant) [Phage-1634 (peptide-92 library clone, SEQ ID NO: 1930)]                  0.09
3  SCAAGAHWSWPVCF (Tested as clonal phage supernatant) [Phage-1639 (peptide-92 library clone, SEQ ID NO: 1935)]                  0.08
4  SCAAGFDYGWPMCL (Tested as clonal phage supernatant) [Phage-1644 (peptide-92 library clone, SEQ ID NO: 1940)]                  0.06
5  SCSAGAGWAWPMCF (Tested as clonal phage supernatant) [Phage-1643 (peptide-92 library clone, SEQ ID NO: 1939)]                  0.08
6  PCSDGVAYPWPYCV (Tested as clonal phage supernatant) [Phage-1638 (peptide-92 library clone, SEQ ID NO: 1934)]                  0.06
7  SCSAGATWAWPQCF (Tested as clonal phage supernatant) [Phage-1641 (peptide-92 library clone, SEQ ID NO: 1937)]                  0.08
8  LCAAGATYPWPDCV (Tested as clonal phage supernatant) [Phage-1635 (peptide-92 library clone, SEQ ID NO: 1931)]                  0.05
9  TCSAGATYSWPYCL (Tested as clonal phage supernatant) [Phage-1633 (peptide-92 library clone, SEQ ID NO: 1929)]                  0.07

Reported Anti-CD28 Fab signal in the presence of CD28 (phage binding ELISA) of TCAAGANYSWPACL (Tested as clonal phage supernatant) [Phage-1646 (peptide-92 library clone, SEQ ID NO: 1942)] : 0.08

Reported Anti-CD28 Fab signal in the presence of CD28 (phage binding ELISA) of TCAAGANWPWPECL (Tested as clonal phage supernatant) [Phage-1636 (peptide-92 library clone, SEQ ID NO: 1932)] : 0.08

Reported Anti-CD28 Fab signal in the presence of CD28 (phage binding ELISA) of LCSAGAMYPWPVCL (Tested as clonal phage supernatant) [Phage-1640 (peptide-92 library clone, SEQ ID NO: 1936)] : 0.08

Reported Anti-CD28 Fab signal in the presence of CD28 (phage binding ELISA) of SCSAVFSYRWPKCL (Tested as clonal phage supernatant) [Phage-1642 (peptide-92 library clone, SEQ ID NO: 1938)] : 0.06
